Where do the numbers come from? From patent US7208505B2.

tested-on: human β3 adrenergic receptor (Homo sapiens, UniProt P13945)
Construct: expressed in transfected cells
Sequence (P13945 whole entry): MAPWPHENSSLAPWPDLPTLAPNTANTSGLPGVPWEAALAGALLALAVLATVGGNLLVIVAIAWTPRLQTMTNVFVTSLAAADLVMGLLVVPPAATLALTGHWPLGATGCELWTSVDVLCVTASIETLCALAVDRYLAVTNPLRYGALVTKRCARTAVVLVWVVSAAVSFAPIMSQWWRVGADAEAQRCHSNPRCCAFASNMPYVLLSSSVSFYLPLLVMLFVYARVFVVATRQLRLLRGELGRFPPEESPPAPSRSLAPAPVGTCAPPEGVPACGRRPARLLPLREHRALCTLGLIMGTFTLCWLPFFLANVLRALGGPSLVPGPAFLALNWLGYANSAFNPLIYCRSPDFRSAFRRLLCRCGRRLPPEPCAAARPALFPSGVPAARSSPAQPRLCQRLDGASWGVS
experimental-details: whole cell receptor coupled c-AMP assay (Emax relative to isoproterenol)
Format: cell-based
assay-conditions: % intrinsic activity: maximal response divided by isoproterenol maximal response times 100; transfected CHO cells; average of at least 3 runs
parameter: Emax (%) ± SEM

COC(=O)c1ccc2[nH]cc(CC(C)(C)NC[C@H](O)COc3ccccc3-c3cccs3)c2c1
37.3
CC(C)(NC[C@H](O)COc1ccccc1-c1ccon1)C(=O)N1CCc2ccccc21
32.0
CC(C)(Cc1c[nH]c2c(C=Cn3cncn3)cccc12)NCC(O)COc1ccccc1-c1cccs1 (stereo not shown)
47.3
CC(C)(Cc1c[nH]c2c(OCC#N)cccc12)NC[C@H](O)COc1ccccc1-c1csc(C#N)c1.O=C(O)C(F)(F)F
54.2
CC(C)(Cc1c[nH]c2c(OCC#N)cccc12)NC[C@H](O)COc1ccccc1-c1ccon1 [Example 132]
53.6
COC(=O)c1ccc(-c2cccc3c(CC(C)(C)NC[C@H](O)COc4ccccc4-c4ccon4)c[nH]c23)cc1
38.5
CC(=O)c1ccc(-c2cccc3c(CC(C)(C)NC[C@H](O)COc4ccccc4-n4cccc4)c[nH]c23)cc1
38.4
